MEASURED PARAMETER: melting point

Reference set (4 entries):
| COMPOUND | melting point |
| --- | --- |
| O=C1C(=O)c2ccccc2C2=C1SCC1(CCN(C(=O)c3cccc(C(F)(F)F)c3)CC1)O2 | 165 to 166 °C |
| COC(=O)CCCc1cc2nc(Cl)ccc2n1S(=O)(=O)c1ccc(-c2ccccn2)cc1 | 123 to 124 °C |
| CCC1c2ccc(F)n2-c2ccc(Br)cc2N1S(=O)(=O)c1ccc(O)cc1 (stereo not given) | 160 to 162 °C |
| CCOC(=O)C(=Cc1cccc(O)c1)C(=O)OCC | 72 to 74 °C |

## Task Provide only the value of recorded melting point for O=c1[nH]c(NCCCn2ccnc2)nc2c1ncn2C1CC(O)C(CO)O1 (stereo not given)
## Result 245 to 247 °C

## Task Provide only the value of recorded melting point for COc1ccc(-n2nc(Cl)cc2-c2ccc(OCCNS(C)(=O)=O)cc2)cc1
## Result 117 to 119 °C

## Task Provide only the value of recorded melting point for COc1cc(N)c(Cl)cc1C(=O)N[C@H]1CCN(CCNc2ncccc2C#N)C[C@H]1OC (relative stereo)
## Result 134 °C

## Task Provide only the value of recorded melting point for O=c1[nH]c2cc(Cl)ccc2c(=O)n1S(=O)(=O)c1ccc(Cl)cc1F
## Result 267 to 268 °C

* * *

# maps each entry to its melting point

Reference set (3 entries):
| MOLECULE | melting point |
| --- | --- |
| CC(c1ccccc1)C(C(=O)c1ccc(Cl)cc1)n1cncn1 (stereo unspecified) | 163 to 165 °C |
| CC(C)OC(=O)c1cc(-c2nn(C)c(C(F)(F)F)c2Cl)c(F)cc1Cl | 69 °C |
| O=CC1=C(Cl)Nc2cc(F)c(F)cc2C1 | 260 °C |

## Task Provide only the value of recorded melting point for CCCCc1ncc(C=O)n1Cc1ccc(C(=O)OC)cc1
## Result 62 to 64 °C

## Task Provide only the value of recorded melting point for CC(CN(C)C)Oc1ccccc1CC(=O)N1CC2C(C1)C(c1ccccc1)(c1ccccc1)CCS2=O (racemic)
## Result 150 °C

## Task Provide only the value of recorded melting point for CC(C)(C)c1ccc(C(=O)Nc2cn3cc(-c4ncc[nH]4)ccc3n2)cc1
## Result 300 to 301 °C

## Task Provide only the value of recorded melting point for CC(=O)NC[C@H]1CN(c2ccc(C3=CN(C(=O)COC(C)=O)CCC3)c(F)c2)C(=O)O1
## Result 146 to 148 °C

## Task Provide only the value of recorded melting point for Clc1cc(Cl)cc(Oc2cccc(-c3nnc(Nc4ccc(Cl)c(Cl)c4)s3)c2)c1
## Result 242 to 243 °C

## Task Provide only the value of recorded melting point for c1ccc2c(NCC3CCCCC3)c3cnn(C4CCCC4)c3nc2c1
## Result 290 to 292 °C

## Task Provide only the value of recorded melting point for Brc1ccsc1Cc1c[nH]cn1
## Result 212 to 214 °C

## Task Provide only the value of recorded melting point for CCCC(CCC)(CCC)NC(=O)NC
## Result 120 °C

## Task Provide only the value of recorded melting point for CNC(=O)C(=NOC)c1ccccn1
## Result 132 to 133 °C

* * *

# maps each entry to its melting point

Reference set (5 entries):
| COMPOUND | melting point |
| --- | --- |
| Brc1ccc(C2CCCc3cncn32)cc1 (stereo unspecified) | 216 °C |
| COc1ccc2c(c1)CN(C(=O)NO)N=C2Cc1c(Cl)cncc1Cl | 155 to 158 °C |
| Cc1nc(-c2ccccc2)nc(-c2ccncc2)c1C | 152 to 153 °C |
| O=C(CCN1C(=O)CSC1=S)Nc1ccccc1O | 168 to 170 °C |
| CC(C)(C)c1cc(OCc2ccc(C(=O)O)cc2)cc(C(C)(C)C)c1 | 212 to 215 °C |

## Task Provide only the value of recorded melting point for O=C1NC(=O)C(c2c3n(c4ccccc24)CCC(CO)C3)=C1c1ccccc1Cl (stereo unspecified)
## Result 232 to 233 °C

## Task Provide only the value of recorded melting point for NS(=O)(=O)c1nc(Cl)cs1
## Result 137 to 142 °C

## Task Provide only the value of recorded melting point for Cc1cccc(Oc2cccc(Oc3ccc4c(c3)OCO4)c2C(=O)O)c1
## Result 169 to 172 °C

## Task Provide only the value of recorded melting point for COc1ccc(-c2csc(N)n2)cc1OC1CC2CCC1C2 (stereo unspecified)
## Result 168 to 178 °C

## Task Provide only the value of recorded melting point for Cc1cc(Cl)cc(C(=O)Nc2ccnc(Cl)c2)n1
## Result 221 °C

## Task Provide only the value of recorded melting point for Cc1c[nH]c(-c2ccnc(NC(=O)c3ccccc3)c2)n1
## Result 133 to 135 °C

* * *

# maps each entry to its melting point

Reference set (6 entries):
| COMPOUND | MEASURED PARAMETER | REPORTED |
| --- | --- | --- |
| COc1cc2c(cc1[N+](=O)[O-])C(=O)C1(CC1)O2 | melting point | 160 to 163 °C |
| CN1C(=O)C(CC(=O)Nc2ccc(Cl)cc2)N=C(c2ccccc2)c2ccccc21 (stereo not given) | melting point | 238 to 240 °C |
| CC(C)(C)c1cc(NC(=O)Nc2ccc(Oc3ccncc3)cc2)[nH]n1 | melting point | 178 to 179 °C |
| Cc1c(CC(=O)O)c2cc(OCc3csc(-c4ccc(Cl)cc4)n3)ccc2n1Cc1ccc(Cl)cc1 | melting point | 145 to 146 °C |
| CN(C)C(=O)C(C#N)=C(O)c1ccc(C(F)(F)F)cc1[N+](=O)[O-] | melting point | 104 to 106 °C |
| COC(=O)c1ccc(-c2cc(C)n(Cc3ccccc3)n2)o1 | melting point | 65 to 66 °C |

## Task Provide only the value of recorded melting point for NC(=O)c1cc(I)cc(I)c1O
## Result 206 °C

## Task Provide only the value of recorded melting point for COC(=O)c1cc(I)cn1CCF
## Result 49 to 50.5 °C

* * *

# maps each entry to its melting point

## Task Provide only the value of recorded melting point for CCCn1c(=O)c2c(nc(/C=C/c3ccccc3)n2C)n(CCC)c1=O
## Result 163 °C

## Task Provide only the value of recorded melting point for CNC(=O)CONC(=O)c1cc(Br)cc(Br)c1NC(=O)c1cc(Br)nn1-c1ncccc1Cl
## Result 220 to 221 °C

## Task Provide only the value of recorded melting point for CN(C(=O)OC(C)(C)C)c1cc(Oc2ccc(-c3nnn[nH]3)cc2)ccc1[N+](=O)[O-]
## Result 81 to 84 °C

## Task Provide only the value of recorded melting point for CS(=O)c1ccc(-c2nn(CC3CC3)c(=O)cc2-c2ccc(Cl)cc2)cc1 (stereo not given)
## Result 152 °C

## Task Provide only the value of recorded melting point for O=C(O)c1ccc(NC(=O)C(CC2CCCC2)c2cccc(Cl)c2)nc1 (stereo not given)
## Result 251 to 255 °C

## Task Provide only the value of recorded melting point for O=S(=O)(Nc1ccc2c(OCc3csc(-c4ccccc4)n3)cccc2c1)C(F)(F)F
## Result 89 to 99 °C

## Task Provide only the value of recorded melting point for CC(CCN)P(C)(=O)O (stereo not given)
## Result 68 to 75 °C

## Task Provide only the value of recorded melting point for CCOC(=O)[C@@H](O)[C@@H]1OC(=O)c2cc(OC)c(OCc3ccccc3)cc21
## Result 138 to 140 °C

## Task Provide only the value of recorded melting point for CCOC(=O)C(=O)Oc1cccc(-c2cn3c(n2)sc2ccccc23)c1
## Result 120 to 121 °C

## Task Provide only the value of recorded melting point for O=c1oc(-c2ccccc2)cc(O)c1SCc1ccc2c(c1)OCO2
## Result 162 to 164 °C

* * *

MEASURED PARAMETER: melting point

| COMPOUND | melting point |
| --- | --- |
| CC(=O)NC(=Cc1ccc(OC(C)=O)cc1)C(=O)O | 236 to 237 °C |
| CN1C2CCC1CC(NC(=O)c1cccc3oc(-c4ccccc4)nc13)C2 (stereo not given) | 149 to 151 °C |
| Cc1cc2[nH]cc(CSCCN3CC=C(c4ccccc4)CC3)c2cc1C | 123 to 124 °C |
| Oc1ccc(C2(c3ccccc3)OCCCC2c2ccccc2)cc1 (stereo not given) | 194 to 196 °C |

Next compound, melting point to be filled in.
## Task Provide only the value of recorded melting point for CCOC(=O)Cc1ccc(OCc2ccc3c(c2)OCO3)cc1
## Result 49 to 52 °C

* * *

MEASURED PARAMETER: melting point

Reference set (3 entries):
| COMPOUND | REPORTED |
| --- | --- |
| COC(=O)c1cc(C(C)=O)c(OC(C)=O)cc1NC(=O)C(F)(F)F | 130 to 131 °C |
| CNC(=C[N+](=O)[O-])NCCSCc1nccs1 | 103 to 104 °C |
| O=C(O)COc1ccc2c(=O)c3cccc(Cl)c3oc2c1Cl | 283 to 286 °C |

## Task Provide only the value of recorded melting point for CSc1cc2[nH]ccc2cc1F
## Result 51 °C

## Task Provide only the value of recorded melting point for CC(C)=CC(=O)N[C@H]1CC[C@H](CCN2CCN(c3nccc4c3OCC4)CC2)CC1
## Result 184 °C

## Task Provide only the value of recorded melting point for COc1cc(Cc2cnc(N)nc2N)cc2c1OC(C)(C)C=C2c1ccccc1
## Result > 260 °C

## Task Provide only the value of recorded melting point for CCN1C(=O)CCCc2cc(Nc3ncc(Cl)c(N[C@H]4[C@@H](C(N)=O)[C@@H]5C=C[C@H]4C5)n3)c(OC)cc21
## Result 145 to 153 °C

## Task Provide only the value of recorded melting point for C1=C(CCc2ccco2)CCN(Cc2c[nH]c3ncccc23)C1
## Result 105 °C
